- Test system: 461, 84V, 90M virus
- Protocol Text: Phenotypic susceptibility assay at Virologic, Inc.
- Format: cell-based, HIV-1
- Test Conditions: Human immunodeficiency virus 1, read-out: EC50 or IC50 (mM), values with asterisk (IC50)
Assign IC50 to each entry below.

According to the records, this compound `Cc1cnccc1CNC(=O)[C@H]1N(C(=O)[C@@H](O)[C@H](Cc2ccccc2)NC(=O)c2cccc(O)c2C)CSC1(C)C` displays IC50 of 118 nM

According to the records, this compound `CCCC(=O)N[C@@H](Cc1ccccc1)[C@H](O)C(=O)N1CSC(C)(C)[C@H]1C(=O)NCc1ccccc1C` displays IC50 of 2080 nM

According to the records, this compound `C=CCNC(=O)[C@H]1N(C(=O)[C@@H](O)[C@H](Cc2ccccc2)NC(=O)c2cccc3c2CCN3)CSC1(C)C` displays IC50 of 547 nM

According to the records, this compound `Cc1c(O)cccc1C(=O)N[C@@H](Cc1ccccc1)[C@H](O)C(=O)N1CSC(C)(C)[C@H]1C(=O)NCc1cccs1` displays IC50 of 48 nM

According to the records, this compound `Cc1ccccc1CNC(=O)[C@H]1N(C(=O)[C@@H](O)[C@H](Cc2ccccc2)NC(=O)COc2c(C)cccc2C)CSC1(C)C` displays IC50 of 333 nM

According to the records, this compound `Cc1c(O)cccc1C(=O)N[C@@H](Cc1ccccc1)[C@H](O)C(=O)N1CSC(C)(C)[C@H]1C(=O)N[C@H]1CCOc2ccccc21` displays IC50 of 49 nM

According to the records, this compound `Cc1ccccc1CNC(=O)[C@H]1N(C(=O)[C@@H](O)[C@H](Cc2ccccc2)NC(=O)c2cccc3c2CCN3)CSC1(C)C` displays IC50 of 405 nM

According to the records, this compound `Cc1c(O)cccc1C(=O)N[C@@H](Cc1ccccc1)[C@H](O)C(=O)N1CSC(C)(C)[C@H]1C(=O)N[C@@H]1C=CCCC1` displays IC50 of 55 nM

According to the records, this compound `Cc1c(O)cccc1C(=O)N[C@@H](Cc1ccccc1)[C@H](O)C(=O)N1CSC(C)(C)[C@H]1C(=O)NCC1CCCCC1` displays IC50 of 921 nM

According to the records, this compound `CC1(C)SCN(C(=O)[C@@H](O)[C@H](Cc2ccccc2)NC(=O)O[C@H]2CCOC2)[C@@H]1C(=O)N[C@H]1CCCc2ccccc21` displays IC50 of 604 nM

---

- Assay System: HIV-1 protease (Q7S mutant form) (Human immunodeficiency virus type 1 group M subtype B, UniProt P04585, Q495S)
- Construct: made in house
- Protocol Text: HIV-1 Protease RET assay
- Assay type: biochemical
- Test Conditions: Ave. Ki (nM), RET assay, Q7S enzyme, Morrison tight binding fit
Measurement Type: Ki

According to the records, this compound `CCCNC(=O)[C@@H]1CC(F)(F)CN1C(=O)[C@@H](O)[C@H](Cc1ccccc1)NC(=O)c1cccc(O)c1C` displays Ki of 3 nM

According to the records, this compound `Cc1c(O)cccc1C(=O)N[C@@H](Cc1ccccc1)[C@H](O)C(=O)N1CSC(C)(C)[C@H]1C(=O)N[C@H]1CCCc2sccc21` displays Ki of < 0.1 nM

According to the records, this compound `Cc1ccccc1C(=O)N[C@@H](Cc1ccccc1)[C@H](O)C(=O)N1CSC(C)(C)[C@H]1C(=O)N[C@H]1CCc2ccccc21` displays Ki of 0.18 nM

According to the records, this compound `Cc1c(O)cccc1C(=O)N[C@@H](Cc1ccccc1)[C@H](O)C(=O)N1CSC2(CCC2)[C@H]1C(=O)N[C@@H]1C=CCCC1` displays Ki of < 0.1 nM

According to the records, this compound `Cc1ccccc1CNC(=O)[C@@H]1CC(F)(F)CN1C(=O)[C@@H](O)[C@H](Cc1ccccc1)NC(=O)O[C@H]1CCOC1` displays Ki of 1.3 nM

According to the records, this compound `Cc1c(O)cccc1C(=O)N[C@@H](Cc1ccccc1)[C@H](O)C(=O)N1CC(F)(F)C(C)(C)[C@H]1C(=O)NCc1ccco1` displays Ki of < 0.1 nM

---

- Assay System: HIV-1 protease (Q7S mutant form) (Human immunodeficiency virus type 1 group M subtype B, UniProt P04585, Q495S)
- Construct: made in house
- Protocol Text: HIV-1 Protease RET assay
- Type: biochemical
- Test Conditions: Ki, unit inferred
Measurement Type: Ki (nM)
Please state the figure in nM; there is no need to write the unit.

According to the records, this compound `Cc1ccccc1CNC(=O)[C@H]1N(C(=O)[C@@H](O)[C@H](Cc2ccccc2)NC(=O)Oc2ccc(Cl)cc2)CSC1(C)C` displays Ki of 468

According to the records, this compound `Cc1c(O)cccc1C(=O)N[C@@H](Cc1ccccc1)[C@H](O)C(=O)N1CSC(C)(C)[C@H]1C(=O)NC1(C#N)CC1` displays Ki of 6.2

According to the records, this compound `CCCNC(=O)[C@@H]1CC(F)(F)CN1C(=O)[C@@H](O)[C@H](Cc1ccccc1)NC(=O)c1ccc(C)c(O)c1C` displays Ki of 108

According to the records, this compound `Cc1ccccc1CNC(=O)[C@H]1N(C(=O)[C@@H](O)[C@H](Cc2ccccc2)NC(=O)COc2cccnc2Cl)CSC1(C)C` displays Ki of 7.6

According to the records, this compound Cc1c(O)cccc1C(=O)N[C@@H](Cc1ccccc1)[C@H](O)C(=O)N1CSC(C)(C)C1C(=O)NCCc1ccccn1 (some centres unmarked) displays Ki of 134

According to the records, this compound Cc1ccccc1CNC(=O)[C@H]1N(C(=O)[C@@H](O)[C@H](Cc2ccccc2)NC(=O)OC2CC3CCC2C3)CSC1(C)C (some centres unmarked) displays Ki of 9.4

According to the records, this compound Cc1ccccc1CNC(=O)[C@H]1N(C(=O)[C@@H](O)[C@H](Cc2ccccc2)NC(=O)CC(C)NC(=O)OC(C)(C)C)CSC1(C)C (some centres unmarked) displays Ki of 122

According to the records, this compound `Cc1cccc(C)c1OCC(=O)N[C@@H](Cc1ccccc1)[C@H](O)C(=O)N1CSC(C)(C)[C@H]1C(=O)NCc1ccccc1C(F)(F)F` displays Ki of 1.4

According to the records, this compound `Cc1ccccc1CNC(=O)[C@H]1N(C(=O)[C@@H](O)[C@H](Cc2ccccc2)NC(=O)COc2cccc(N3CCOCC3)c2)CSC1(C)C` displays Ki of 4.4

According to the records, this compound COc1ccc(CNC(=O)N[C@@H](Cc2ccccc2)[C@H](O)C(=O)N2CSC(C)(C)C2C(=O)NCc2ccc(OC)cc2)cc1 (some centres unmarked) displays Ki of 7.8

According to the records, this compound `C#CCOC(=O)N[C@@H](Cc1ccccc1)[C@H](O)C(=O)N1CSC(C)(C)[C@H]1C(=O)NCc1cccc(CC)c1` displays Ki of 3.8

According to the records, this compound `Cc1c(C(=O)N[C@@H](Cc2ccccc2)[C@H](O)C(=O)N2CSC(C)(C)[C@H]2C(=O)N[C@@H]2C=CCCC2)ccc(F)c1O` displays Ki of 17.3

According to the records, this compound Cc1ccccc1CNC(=O)[C@H]1N(C(=O)[C@@H](O)[C@H](Cc2ccccc2)NC(=O)CCNC(=O)OC(C)(C)C)CSC1(C)C [drawing 1038] displays Ki of 48

According to the records, this compound Cc1ccccc1CNC(=O)[C@H]1N(C(=O)[C@@H](O)[C@H](Cc2ccccc2)NC(=O)CCNC(=O)OC(C)(C)C)CSC1(C)C [drawing 1035] displays Ki of 94

---

- Assay System: HIV-1 protease (Q7S mutant form) (Human immunodeficiency virus type 1 group M subtype B, UniProt P04585, Q495S)
- Construct: made in house
- Protocol Text: HIV-1 Protease RET assay
- Format: biochemical
- Test Conditions: Ave. Ki (nM), RET assay, Q7S enzyme, Morrison tight binding fit
For each record, check the reported Ki: if it is below 5 nM write T, else write F.

QUERY: Hi there! Is Ki for Cc1c(O)cccc1C(=O)N[C@@H](Cc1ccccc1)[C@H](O)C(=O)N1CC(F)(F)C(C)(C)[C@H]1C(=O)NCC(C)C [Example C21] below 5 nM, do you know?
RESULT: T

QUERY: Hi there! Is Ki for Cc1cccc(C)c1OCC(=O)N[C@@H](Cc1ccccc1)[C@H](O)C(=O)N1CSC(C)(C)[C@H]1C(=O)N[C@H]1CCOc2ccccc21 [Example B30] below 5 nM, do you know?
RESULT: T

QUERY: Hi there! Is Ki for Cc1c(O)cccc1C(=O)N[C@@H](Cc1ccccc1)[C@H](O)C(=O)N1CSC(C)(C)[C@H]1C(=O)N[C@@H]1CCCc2ncccc21 [Example A43] below 5 nM, do you know?
RESULT: T

QUERY: Hi there! Is Ki for CC1(C)SCN(C(=O)[C@@H](O)[C@H](Cc2ccccc2)NC(=O)c2cccc3c2CCN3)[C@@H]1C(=O)NC[C@H]1CCCO1 [Example B44] below 5 nM, do you know?
RESULT: T

QUERY: Hi there! Is Ki for Cc1c(O)cccc1C(=O)N[C@@H](Cc1ccccc1)[C@H](O)C(=O)N1CSC(C)(C)[C@H]1C(=O)N1CCCCC1 [Example A34] below 5 nM, do you know?
RESULT: T

QUERY: Hi there! Is Ki for CCC(C)C(=O)N[C@@H](Cc1ccccc1)[C@H](O)C(=O)N1CSC(C)(C)[C@H]1C(=O)NCc1ccccc1C (stereo partly shown) [Example B12] below 5 nM, do you know?
RESULT: F

QUERY: Hi there! Is Ki for Cc1c(O)cccc1C(=O)N[C@@H](Cc1ccccc1)[C@H](O)C(=O)N1CSC(C)(C)[C@H]1C(=O)NC1CC1c1ccccc1 (mixture of isomers) [Example A28] below 5 nM, do you know?
RESULT: T

QUERY: Hi there! Is Ki for Cc1c(O)cccc1C(=O)N[C@@H](Cc1ccccc1)[C@H](O)C(=O)N1CSC(C)(C)[C@H]1C(=O)NCc1ccccn1 [Example A3] below 5 nM, do you know?
RESULT: T

QUERY: Hi there! Is Ki for CC1(C)SCN(C(=O)[C@@H](O)[C@H](Cc2ccccc2)NC(=O)NCc2ccccc2Cl)C1C(=O)NCc1ccccc1Cl (stereo partly shown) [Example B46] below 5 nM, do you know?
RESULT: F

QUERY: Hi there! Is Ki for Cc1c(O)cccc1C(=O)N[C@@H](Cc1ccccc1)[C@H](O)C(=O)N1CSC(C)(C)[C@H]1C(=O)NCc1ccco1 [Example A15] below 5 nM, do you know?
RESULT: T

QUERY: Hi there! Is Ki for C#CCOC(=O)N[C@@H](Cc1ccccc1)[C@H](O)C(=O)N1CSC(C)(C)[C@H]1C(=O)NCc1ccccc1C [Example B10] below 5 nM, do you know?
RESULT: T

QUERY: Hi there! Is Ki for Cc1c(O)cccc1C(=O)N[C@@H](Cc1ccccc1)[C@H](O)C(=O)N1CSC(C)(C)[C@H]1C(=O)NCc1cc2ccccc2o1 [Example A62] below 5 nM, do you know?
RESULT: F

QUERY: Hi there! Is Ki for COc1cccc(CNC(=O)[C@@H]2CC(F)(F)CN2C(=O)[C@@H](O)[C@H](Cc2ccccc2)NC(=O)c2cccc(O)c2C)c1 [Example C12] below 5 nM, do you know?
RESULT: T
